# assay-info: Fraction of drug metabolized in rat microsomes; note: time not given here
# Format: ADME, Microsome
# condition-parameters: read-out: Fm
recorded-endpoint: metabolised (%)

# chem-smiles, metabolised, %
records = [
    ("C[C@H]1CCCN1CCCOc1ccc2c(c1)CC[C@H]1[C@@H]3[C@H](C(=O)N4CCCC4)CC(=O)[C@@]3(C)CC[C@H]21", 85),
]

P: C[C@]12CC[C@@H]3c4ccc(OCCCN5CCCC5=O)cc4CC[C@H]3[C@@H]1CC[C@@H]2N1CCCC1
Q: C[C@@H]1CCCN1CCCOc1ccc2c(c1)CC[C@H]1[C@@H]3[C@@H](C(=O)NCC4CCC4)CC[C@@]3(C)CC[C@H]21
Problem: Of P and Q , whose reported metabolised is the larger number? Select an item and report its label.
Solution: P

A: CC(=O)N[C@@H]1CC(=O)[C@@]2(C)CC[C@@H]3c4ccc(OCCCN5CCC[C@H]5C)cc4CC[C@H]3[C@H]12
B: CCNC(=O)[C@H]1C[C@H](OC)[C@@]2(C)CC[C@@H]3c4ccc(OCCCN5CCC[C@H]5C)cc4CC[C@H]3[C@H]12
C: CCNC(=O)[C@H]1CC[C@@]2(C)CC[C@@H]3c4ccc(OCCCN5CCC[C@H]5C)cc4CC[C@H]3[C@H]12
Problem: Reorder the items by metabolised, least to greatest. I'd appreciate it if you listed the labels in the requested order.
Solution: A, C, B
